molecular target: hCB1 (Homo sapiens, UniProt P21554); assay: bioSensAll ebBRET signaling profiling, hCB1; assay type: cell-based; parameters: host or cells: HEK293SL cells, transient PEI transfection; conditions: Log [Compound] (M) -6.31878; single replicate values, FigS6a
Sequence (P21554 whole entry): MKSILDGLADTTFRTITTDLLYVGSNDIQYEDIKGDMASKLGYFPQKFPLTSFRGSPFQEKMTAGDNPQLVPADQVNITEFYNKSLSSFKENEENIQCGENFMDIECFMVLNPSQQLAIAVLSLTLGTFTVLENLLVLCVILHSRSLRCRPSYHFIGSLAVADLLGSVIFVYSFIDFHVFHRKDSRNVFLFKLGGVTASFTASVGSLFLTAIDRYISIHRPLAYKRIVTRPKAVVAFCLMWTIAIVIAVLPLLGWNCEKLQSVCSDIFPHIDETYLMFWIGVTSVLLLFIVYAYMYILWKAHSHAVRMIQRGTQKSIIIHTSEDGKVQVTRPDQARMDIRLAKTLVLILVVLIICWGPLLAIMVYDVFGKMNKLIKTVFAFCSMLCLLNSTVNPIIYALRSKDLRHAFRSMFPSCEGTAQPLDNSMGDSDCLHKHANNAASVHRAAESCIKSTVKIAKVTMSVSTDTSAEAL
We label by threshold. Values of Gi1 hCB1 strictly beneath 0.2 are y. Values of 0.2 and up are n.

Exam item: Hello, is Gi1 hCB1 of the following compound strictly smaller than 0.2? Cc1cc(C(=O)NC(c2ccccc2)c2ccco2)nn1-c1cccc(C(F)(F)F)c1 (centres unmarked)
Marked response: n

Exam item: Hello, is Gi1 hCB1 of the following compound strictly smaller than 0.2? Cc1cc(C(=O)N2CC3(CCC3)[C@@H]2[C@H]2CCCO2)nn1-c1cccc(C(F)(F)F)c1 (single isomer, unassigned)
Marked response: y

Exam item: Hello, is Gi1 hCB1 of the following compound strictly smaller than 0.2? Cc1cc(C(=O)N(C)C(c2ccccc2)c2ccco2)nn1-c1cccc(C(F)(F)F)c1 (centres unmarked)
Marked response: y

Exam item: Hello, is Gi1 hCB1 of the following compound strictly smaller than 0.2? Cc1cc(C(=O)N(C)C(c2ccco2)c2ccco2)nn1-c1cccc(C(F)(F)F)c1
Marked response: y

Exam item: Hello, is Gi1 hCB1 of the following compound strictly smaller than 0.2? Cn1nc(-c2nnc(C(C)(C)Oc3ccc(C(F)(F)F)cc3)o2)c2ccccc2c1=O
Marked response: n
